Test: Plasma clearance in rat at 1.3 mg/kg, po
Format: ADME, organism-based
Set-up: dose 1.3 mg/kg, route oral
METRIC: CL/F (mL/min/kg)

# SMILES_STRUCTURE, METRIC, VALUE_UNIT, OBS_VALUE
rows = [
    ("CCN1C[C@@H](N(Cc2cc(F)ccc2Cl)c2ccc(C#N)c(Cl)c2)CC1=O", "CL/F", "mL/min/kg", 75),
]

###

Test: Oral bioavailability in rat at 1.3 mg/kg
Type: ADME, organism-based
Details: in vivo
METRIC: bioavailability (%)

# SMILES_STRUCTURE, METRIC, OBS_VALUE
data = [
    ("CCN1C[C@@H](N(Cc2cc(F)ccc2Cl)c2ccc(C#N)c(Cl)c2)CC1=O", "bioavailability", 100),
]

###

Assay: Oral bioavailability in rat at 2.2 mg/kg
Type: ADME, organism-based
Settings: in vivo
METRIC: bioavailability (%)

# SMILES_STRUCTURE, OBS_VALUE
measured = [
    ("CN1C[C@@H](N(Cc2cccc(F)c2F)c2ccc(C#N)c(Cl)c2)CC1=O", 100),
]

###

Experiment: Half life in monkey at 1.3 mg/kg, po
Assay type: ADME, organism-based, Macaca mulatta
Parameters: dose 1.3 mg/kg, route oral
Settings: rhesus monkey, in vivo

# SMILES_STRUCTURE, half-life, min
records = [
    ("CCN1C[C@@H](N(Cc2cc(Cl)ccc2Cl)c2ccc(C#N)c(Cl)c2)CC1=O", 90),
]

###

Test: Half life in rat at 2.2 mg/kg, po
Assay type: ADME, organism-based
Set-up: dose 2.2 mg/kg, route oral
Conditions: in vivo

# SMILES_STRUCTURE, VALUE_UNIT, half-life
measured = [
    ("CN1C[C@@H](N(Cc2cccc(F)c2F)c2ccc(C#N)c(Cl)c2)CC1=O", "h", 6.2),
]

###

Assay: AUC (0 to t) in rat at 1.3 mg/kg, po
Type: ADME, organism-based
Set-up: dose 1.3 mg/kg, route oral
Settings: plasma

# SMILES_STRUCTURE, AUC(0-t) [ng·h/mL]
records = [
    ("CCN1C[C@@H](N(Cc2cc(F)ccc2Cl)c2ccc(C#N)c(Cl)c2)CC1=O", 290),
]

###

Experiment: AUC (0 to t) in rat at 0.12 mg/kg, po
Assay type: ADME, organism-based
Parameters: dose 0.12 mg/kg, route oral
Settings: plasma
METRIC: AUC(0-t) (ng·h/mL)

# SMILES_STRUCTURE, OBS_VALUE
records = [
    ("CC(C)N1C[C@@H](N(Cc2ccccc2Cl)c2ccc(C#N)c(Cl)c2)CC1=O", 30),
]

###

Experiment: Volume of distribution at steady state in monkey at 1 mg/kg, iv or 1.6 mg/kg, po
Assay type: ADME, organism-based, Macaca mulatta
Conditions: rhesus monkey, in vivo, read-out: Vdss

# SMILES_STRUCTURE, Vd [L/kg]
records = [
    ("CN1C[C@@H](N(Cc2cccc(F)c2F)c2ccc(C#N)c(Cl)c2)CC1=O", 1.7),
]

###

Test: Half life in rat at 0.12 mg/kg, po
Type: ADME, organism-based
Set-up: dose 0.12 mg/kg, route oral
Conditions: in vivo

# SMILES_STRUCTURE, VALUE_UNIT, half-life
measured = [
    ("CC(C)N1C[C@@H](N(Cc2ccccc2Cl)c2ccc(C#N)c(Cl)c2)CC1=O", "h", 5.8),
]

###

Test: Volume of distribution at steady state in monkey at 1 mg/kg, iv or 1.3 mg/kg, po
Type: ADME, organism-based, Macaca mulatta
Settings: rhesus monkey, in vivo, read-out: Vdss

# SMILES_STRUCTURE, Vd
rows = [
    ("CCN1C[C@@H](N(Cc2cc(Cl)ccc2Cl)c2ccc(C#N)c(Cl)c2)CC1=O", "2.8 L/kg"),
]

###

Experiment: AUC (0 to t) in rat at 2.2 mg/kg, po
Format: ADME, organism-based
Design: dose 2.2 mg/kg, route oral
Settings: plasma

# SMILES_STRUCTURE, AUC(0-t), ng·h/mL
records = [
    ("CN1C[C@@H](N(Cc2cccc(F)c2F)c2ccc(C#N)c(Cl)c2)CC1=O", 2300),
]

###

Assay: AUC (0 to t) in monkey at 1.6 mg/kg, po
Type: ADME, organism-based, Macaca mulatta
Design: dose 1.6 mg/kg, route oral
Details: rhesus monkey, plasma

# SMILES_STRUCTURE, AUC(0-t)
records = [
    ("CN1C[C@@H](N(Cc2cccc(F)c2F)c2ccc(C#N)c(Cl)c2)CC1=O", "0.27 µg·h/mL"),
]

###

Assay: AUC (0 to t) in rat at 2 mg/kg, po
Type: ADME, organism-based
Parameters: dose 2 mg/kg, route oral
Details: plasma
METRIC: AUC(0-t) (ng·h/mL)

# SMILES_STRUCTURE, OBS_VALUE
records = [
    ("CCN1C[C@@H](N(Cc2cc(Cl)ccc2Cl)c2ccc(C#N)c(Cl)c2)CC1=O", 150),
]

###

Experiment: Plasma clearance in monkey at 1.6 mg/kg, po
Assay type: ADME, organism-based, Macaca mulatta
Design: dose 1.6 mg/kg, route oral
Conditions: rhesus monkey
METRIC: CL/F (mL/min/kg)

# SMILES_STRUCTURE, OBS_VALUE
data = [
    ("CN1C[C@@H](N(Cc2cccc(F)c2F)c2ccc(C#N)c(Cl)c2)CC1=O", 110),
]

###

Experiment: Oral bioavailability in rat at 2 mg/kg
Format: ADME, organism-based
Details: in vivo

# SMILES_STRUCTURE, bioavailability / %
records = [
    ("CCN1C[C@@H](N(Cc2cc(Cl)ccc2Cl)c2ccc(C#N)c(Cl)c2)CC1=O", 100),
]

###

Assay: Volume of distribution at steady state in rat at 1 mg/kg, iv or 1.3 mg/kg, po
Format: ADME, organism-based
Conditions: in vivo, read-out: Vdss
METRIC: Vd (L/kg)

# SMILES_STRUCTURE, VALUE_UNIT, OBS_VALUE
data = [
    ("CCN1C[C@@H](N(Cc2cc(F)ccc2Cl)c2ccc(C#N)c(Cl)c2)CC1=O", "L/kg", 15),
]

###

Experiment: Oral bioavailability in rat at 0.12 mg/kg
Format: ADME, organism-based
Conditions: in vivo

# SMILES_STRUCTURE, bioavailability [%]
rows = [
    ("CC(C)N1C[C@@H](N(Cc2ccccc2Cl)c2ccc(C#N)c(Cl)c2)CC1=O", 100),
]

###

Test: Plasma clearance in monkey at 1.3 mg/kg, po
Assay type: ADME, organism-based, Macaca mulatta
Parameters: dose 1.3 mg/kg, route oral
Details: rhesus monkey

# SMILES_STRUCTURE, CL/F (mL/min/kg)
data = [
    ("CCN1C[C@@H](N(Cc2cc(Cl)ccc2Cl)c2ccc(C#N)c(Cl)c2)CC1=O", 480),
]

###

Test: Half life in monkey at 1.6 mg/kg, po
Format: ADME, organism-based, Macaca mulatta
Design: dose 1.6 mg/kg, route oral
Settings: rhesus monkey, in vivo
METRIC: half-life (h)

# SMILES_STRUCTURE, METRIC, VALUE_UNIT, OBS_VALUE
rows = [
    ("CN1C[C@@H](N(Cc2cccc(F)c2F)c2ccc(C#N)c(Cl)c2)CC1=O", "half-life", "h", 1.4),
]

###

Experiment: Cmax in monkey at 1.3 mg/kg, po
Type: ADME, organism-based, Macaca mulatta
Parameters: dose 1.3 mg/kg, route oral
Details: rhesus monkey, in vivo
METRIC: Cmax

# SMILES_STRUCTURE, OBS_VALUE
measured = [
    ("CCN1C[C@@H](N(Cc2cc(Cl)ccc2Cl)c2ccc(C#N)c(Cl)c2)CC1=O", "15 ng/mL"),
]

###

Assay: AUC (0 to t) in monkey at 1.3 mg/kg, po
Assay type: ADME, organism-based, Macaca mulatta
Parameters: dose 1.3 mg/kg, route oral
Conditions: rhesus monkey, plasma

# SMILES_STRUCTURE, AUC(0-t) / ng·h/mL
data = [
    ("CCN1C[C@@H](N(Cc2cc(Cl)ccc2Cl)c2ccc(C#N)c(Cl)c2)CC1=O", 32),
]

###

Assay: Volume of distribution at steady state in rat at 1 mg/kg, iv or 2.2 mg/kg, po
Assay type: ADME, organism-based
Settings: in vivo, read-out: Vdss
METRIC: Vd (L/kg)

# SMILES_STRUCTURE, METRIC, OBS_VALUE
measured = [
    ("CN1C[C@@H](N(Cc2cccc(F)c2F)c2ccc(C#N)c(Cl)c2)CC1=O", "Vd", 3.4),
]

###

Assay: Plasma clearance in rat at 0.12 mg/kg, po
Format: ADME, organism-based
Design: dose 0.12 mg/kg, route oral

# SMILES_STRUCTURE, CL/F [L/h/kg]
measured = [
    ("CC(C)N1C[C@@H](N(Cc2ccccc2Cl)c2ccc(C#N)c(Cl)c2)CC1=O", 2.4),
]

Numbers sourced from ChEMBL document CHEMBL1154038.
